- ASSAY_TEXT: Human microsome stability assay
- Format: in vitro ADME
- RUN_PARAMETERS: 1 μM test compound, 0.5 mg/mL liver microsomal protein, NADPH regenerating system, 37° C.; <7 low, 7-16.2 medium, >16.2 high
// reported Clearance of Human microsome for each item listed

>  <MOLECULE>
O=C(C1=NOC2(CCCNC2)C1)N1CCc2cc(S(=O)(=O)N3CCN(c4cc(C(F)(F)F)cc(Cl)n4)CC3)ccc21 (stereo not shown) [Example 039]

>  <MEASURE_UNIT>
mL/min/kg

>  <Clearance of Human microsome>
9.4

$$$$
>  <MOLECULE>
O=C(CNCCO)N1CCc2cc(S(=O)(=O)N3CCN(c4cc(C(F)(F)F)cc(Cl)n4)CC3)ccc21 [Example 041]

>  <MEASURE_UNIT>
mL/min/kg

>  <Clearance of Human microsome>
6.2

$$$$
>  <MOLECULE>
CC(=O)Oc1ccc(C(=O)N2CCc3cc(S(=O)(=O)N4CCN(c5cc(C(F)(F)F)cc(Cl)n5)CC4)ccc32)cc1OC(C)=O [Example 043]

>  <MEASURE_UNIT>
mL/min/kg

>  <Clearance of Human microsome>
6.2

$$$$
>  <MOLECULE>
CC(=O)N1CCc2cc(S(=O)(=O)N3CCN(c4cc(Cl)cc(C(F)(F)F)c4)CC3)ccc21 [Example F-1, reference compound]

>  <MEASURE_UNIT>
mL/min/kg

>  <Clearance of Human microsome>
14

$$$$
>  <MOLECULE>
O=C(c1cnn2cccnc12)N1CCc2cc(S(=O)(=O)N3CCN(c4cc(C(F)(F)F)cc(Cl)n4)CC3)ccc21 [Example 034]

>  <MEASURE_UNIT>
mL/min/kg

>  <Clearance of Human microsome>
6.2

$$$$
>  <MOLECULE>
NCCCNCc1ccc(C(=O)Nc2ccc(S(=O)(=O)N3CCN(c4cc(C(F)(F)F)cc(Cl)n4)CC3)cc2)cc1 [Example 001]

>  <MEASURE_UNIT>
mL/min/kg

>  <Clearance of Human microsome>
6.2

$$$$
>  <MOLECULE>
NCCCN1CCN(c2cccc(C(=O)Nc3ccc(S(=O)(=O)N4CCN(c5cc(C(F)(F)F)cc(Cl)n5)CC4)cc3)c2)CC1 [Example 068]

>  <MEASURE_UNIT>
mL/min/kg

>  <Clearance of Human microsome>
6.2

$$$$
>  <MOLECULE>
NCCCNCc1ccc(C(=O)Nc2ccc(S(=O)(=O)N3CCN(c4nccc(C(F)(F)F)n4)CC3)cc2)cc1 [Example 012]

>  <MEASURE_UNIT>
mL/min/kg

>  <Clearance of Human microsome>
6.2

$$$$
>  <MOLECULE>
N#Cc1cc(Cl)nc(N2CCN(S(=O)(=O)c3ccc(NC(=O)c4cccc(CNCCCN)c4)cc3)CC2)c1 [Example 020]

>  <MEASURE_UNIT>
mL/min/kg

>  <Clearance of Human microsome>
8.8

$$$$
>  <MOLECULE>
O=C(Nc1ccc(S(=O)(=O)N2CCN(c3cc(C(F)(F)F)cc(Cl)n3)CC2)cc1)c1cccc(CNCCCN2CCNCC2)c1 [Example 078]

>  <MEASURE_UNIT>
mL/min/kg

>  <Clearance of Human microsome>
6.2

$$$$
